Tested on: human lung cancer cell (HCC827, EGFR Exon 19 deletion activating mutation)
Protocol: Proliferation inhibition (SRB) on human lung cancer cell HCC827
Type: cell-based
Measurement context: 72 hours, SRB staining
pIC50: −log10 of the molar value.
Measured metric: pIC50

> print(dat)
                           molecular.string  endpoint.value
1  C=CC(=O)Nc1cc(Nc2ncc(Cl)c(-c3cn(C)c4ccccc34)n2)c(OC(C)C)nc1N(C)CCN(C)C            8.67
